Reference source: the supplement of paper PMC12042874

Assay: amyloid nucleation score (Sup35N fusion, yeast selection) (log enrichment); library NNK2; higher = more nucleation; inactive = no reads after selection;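 further: zero at mode of non-aggregating sequences after 7 days selection at 30°C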
# label = Condition met if amyloid nucleation score >= 2 else Condition not met

MSTIEYSDGVEGRHILCLIA : Condition not met
LLCNWSPTLRHYFMRWDLGC : Condition not met
TFTVKCTDGGSCF : Condition not met
KPDCVLTTGFTSSLRFIMKK : Condition not met
IISTIT : Condition not met
CTKDTHNRVGHLRSHVDGSL : Condition not met
YAFSCFKSNVFWKGTGNRRG : Condition not met
PRFAYCSSIANKMMGVG : Condition met

query: State whether the measured amyloid nucleation score reaches 2, counting equality as reaching it, for RQANFAQDPTSIVPVYMYLR
result: Condition met

query: Another substance to look at: PTRCRVSYKRLRCSQLSLQL
result: Condition not met

query: Another substance to look at: NLKIMLIRTIVYHDWSTMHL
result: Condition met

* * *

Assay: amyloid nucleation score (Sup35N fusion, yeast selection) (log enrichment); library NNK2; higher = more nucleation; inactive = no reads after selection
# label = label 1 if amyloid nucleation score >= 1 else label 0

Please review the entries below; each comes with its answer.
LYVSALTSVRSWGCGNLVLP : label 1
SVDIKIFLQPAYFCNATAAV : label 1
LRADLYCFACLNAPSC : label 1
SSQCRDVGEAGNHWCLSGSG : label 1
IGKSCRLRA : label 0

Could you now look at the following substance, please?
query: State whether the measured amyloid nucleation score reaches 1, counting equality as reaching it, for AHLARGGWFVKRCYSGGDVF
result: label 0

* * *

Experiment: amyloid nucleation score (Sup35N fusion, yeast selection) (log enrichment); library NNK1; higher = more nucleation; inactive = no reads after selection
# label = criterion met if amyloid nucleation score >= 0.5 else criterion not met

Please review the entries below; each comes with its answer.
FFVFSRAHCAQSSLNKKYL : criterion met
VMTWHL : criterion not met

query: State whether the measured amyloid nucleation score reaches 0.5, counting equality as reaching it, for RFFNTRSGKSWPLKYLTEFF
result: criterion not met

query: Another substance to look at: PHYFFS
result: criterion not met

query: Another substance to look at: SSYAVSTSSPCLSATSARLK
result: criterion met

query: Another substance to look at: NSVAGSYGVWQWGDSRSLPP
result: criterion not met

query: Another substance to look at: IRQTVVLGL
result: criterion not met

query: Another substance to look at: FRIAGSKRCFCID
result: criterion not met

* * *

Experiment: amyloid nucleation score (Sup35N fusion, yeast selection) (log enrichment); library NNK1; higher = more nucleation; inactive = no reads after selection
# label = Satisfied if amyloid nucleation score >= 0.2 else Not satisfied

RSWPHGCVAEQNTCSPHKLA : Satisfied

query: State whether the measured amyloid nucleation score reaches 0.2, counting equality as reaching it, for PYWVYEHSTC
result: Not satisfied

query: Another substance to look at: RLYNLTSVRKFVLLSSM
result: Satisfied

query: Another substance to look at: MLTECSRFLNVFGVGEHEVN
result: Not satisfied

* * *

So I've got a bunch of substances here, and I need their amyloid nucleation score values.
Test: amyloid nucleation score (Sup35N fusion, yeast selection) (log enrichment); library NNK1; higher = more nucleation; inactive = no reads after selection
Numbers only.

Recorded results for 4 substances are shown here.
SWNNLIVVRSKVDGCAVSAG : 0.504
CELSDSVNGNTFNMN : 2.18
CVSATRV : 0.042
VFCSQGMADTLR : 0.409

Give one value of amyloid nucleation score per listed substance.
1. SWCHVKIVSYRVSEVR
2. FHTNMTVSYQTKLVLDRYWN
3. SVCVCLTIGCDFSIESVRCN
4. NTLYVGWCMGFV
5. CSPLVGMTGAMLTVRGSISR
6. PEHRSGNKNMYLYRSRDDMN

result:
1. 0.228
2. 3.42
3. 2.64
4. -0.354
5. 0.019
6. 0.012

Give one value of amyloid nucleation score per listed substance.
1. HNGHPRTAWVVVQY
2. YSNLSCSQTDVRSLR
3. GSWIFCVFHLNMDFCSMGST
4. PFVDVTRHRNSPS
5. YRPWMRYLTLIGNYRHAGHS
6. PCPSINWLMIINNR

result:
1: 0.298; 2: 0.494; 3: -0.023; 4: 1.01; 5: 0.633; 6: 7.74

Give one value of amyloid nucleation score per listed substance.
1. DRREGF
2. GILFDLICIDLCFIGVLLKM
3. MPLLYSVSHCWFKPAFGWAW
4. FSYKIMTSGTCTTWRNAFFS
5. HMNSVVMPRWPTLNGELGSR
6. LYRVTYSNACMFGVVG
7. ITAFKRAKRSAGCW

result:
1: -0.892; 2: -0.406; 3: 0.442; 4: -0.341; 5: -0.179; 6: 0.695; 7: -0.034

Give one value of amyloid nucleation score per listed substance.
1. RIGGETGCV
2. ALFCSTIRNQIGFIRHPESF

result:
[0.216, 0.026]

* * *

Test: amyloid nucleation score (Sup35N fusion, yeast selection) (log enrichment); library NNK3; higher = more nucleation; inactive = no reads after selection
Result type: amyloid nucleation score

Recorded results for 5 sequences are shown here.
SSECSMALIL : inactive
DMLFDQGLSCNGLI : inactive
PHSQDMVWQCCWGGATAEES : -0.047
LWEDNVWVLKR : -0.1
HGSYSDGVEVNEFRLGTRVG : inactive

Give one value of amyloid nucleation score per listed sequence.
1. LQTFDYQRVWNKCLSEFSLE
2. YVVFFDFLSQTVIWVSPGRF
3. GLTTLCSVPKQYVKYFVVTH
4. FHMFMTYTWYPVI

result:
["inactive", "inactive", "inactive", "inactive"]

* * *

Experiment: amyloid nucleation score (Sup35N fusion, yeast selection) (log enrichment); library NNK2; higher = more nucleation; inactive = no reads after selection
Result type: amyloid nucleation score

Recorded results for 5 substances are shown here.
DVAYRVVDKRIQRVAKCMYM : -0.194
SSWSLCIYLINRKKAEYVVI : 0.462
CHNNFVYRGNAPRRHLEQGV : 0.062
IIYNKSW : 2.77
CALSVVTIHFCHTRAPGTPL : 3.65

Give one value of amyloid nucleation score per listed substance.
1. RVVRGWIAYFW
2. VGKRNLISMVGYPYD
3. RFDPNTAWNLTFSSSRCVAG
4. WWHLKTQKSP
5. IISPVGVRMAYL

result:
1. 0.374
2. -1.09
3. 0.91
4. -0.09
5. 0.176

* * *

Assay: amyloid nucleation score (Sup35N fusion, yeast selection) (log enrichment); library NNK2; higher = more nucleation; inactive = no reads after selection
So I've got a bunch of substances here, and I need their amyloid nucleation score values.
Answers are plain numbers.

Recorded results for 4 substances are shown here.
WSWGGHAVMFY : -0.424
LFSVLL : -0.916
LEQKVIIRCCPN : 0.091
SMKHRHSRMVTFGVLV : 0.163

Give one value of amyloid nucleation score per listed substance.
1. TNISMLNDVGEGCFGERSLV
2. KSHSDSFDYW
3. HLSCDWVLIDEGLACYM
4. YIESIAECQSVRVGSIVDCF
5. HVCCFKSQDRCYWVG

result:
-0.291
0.233
-0.586
-1.33
-0.447

Give one value of amyloid nucleation score per listed substance.
1. CKVHFW
2. QAHATFSILRTISAVFSPMQ
3. LNMVMLICNLWDVPHPRYLP
4. FTSSYKSAVRTLIFVLSESG
5. YRSWIGYCSNDVSQTLCTVM
6. YNDSDFWGRVWSTHAPCKAT
7. RPRILYLLLFLYNHFLTSYK

result:
0.596
5.97
5.14
0.331
9.16
-0.134
-1.08

Give one value of amyloid nucleation score per listed substance.
1. FKNAWFLATFNPTT
2. EFVLKSLTNLTEIKYAVSLE

result:
1. -0.104
2. 2.09

Give one value of amyloid nucleation score per listed substance.
1. SGMGSSYLFQFGSMYAFDDC
2. LYLHKDHIDVNFNHMVKGLT

result:
[0.636, -0.263]

* * *

Assay: amyloid nucleation score (Sup35N fusion, yeast selection) (log enrichment); library NNK1; higher = more nucleation; inactive = no reads after selection
Category | rule: reported amyloid nucleation score within range, see b0 = under 0.05, b1 = from 0.05 up to 1, b2 = 1 and over

LSSGSKYFSKVVDASLVCAC : b1
LYHSTLYLNVCYTYHSAGGN : b2
ICSIITPRPGFPTVLRSMKK : b1
QLTSACWYAVTGGGSTAGEG : b0
WGIVVNQYVVRSVRLKLQDR : b2
LRRVMFHRGMCHSVVRNGFG : b0
CGYSKVPMPCALAECGGRPR : b1
FFLRESNVGLAQRATMELLD : b1

query: Form: Item = EIPLRAGWPPWCGSDICL ; Class = ?
result: b1

query: Another substance to look at: KSLQRWRDRCRDHVLSAS
result: b0

query: Another substance to look at: DLGKVVNCYFLFYR
result: b2

query: Another substance to look at: NCSLILTTKRNRWYLQRLRF
result: b1

query: Another substance to look at: YGHCFDFGVRTVLFNGFSLI
result: b2

query: Another substance to look at: HCTLHSSVCSSGCWIE
result: b2

query: Another substance to look at: MNLRETSAFSPCNEVL
result: b0

query: Another substance to look at: LLTTIGQTRMVIHKGIERNE
result: b2

query: Another substance to look at: IFQPFFAYSGKLVWPFKRDP
result: b2
